Target: T1, Recombinant Human DLL4 (delta-like protein 4) (human, UniProt Q9NR61 27-524)
T1 construct: Bought recombinant protein (R&D Systems Cat#1506-D4/CF); also called rHuman DLL4; Delta-like 4
Test: ECL (MSD) multispot binding assay, DLL4 immobilized, Fab in solution
EXPERIMENTAL ENDPOINT: ECL Signal/Noise

{"BINDER": "Fab VH1-46_IGHD6-6*01_IGHJ1*01 S102A/S103P/S104F/H111F (H:APFF) & L6_IGKJ1*01 S76Q (Fab, V domains shown, Tested as Fab expressed in E. coli; VH was cloned into Plasmid A (CH1 constant region, His6 and Flag tags) and the kappa VL into Plasmid C (kappa CL)) VH: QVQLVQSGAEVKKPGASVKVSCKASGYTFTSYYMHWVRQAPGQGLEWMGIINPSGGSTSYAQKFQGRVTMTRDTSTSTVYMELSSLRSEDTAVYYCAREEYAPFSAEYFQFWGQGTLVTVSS VL: EIVLTQSPATLSLSPGERATLSCRASQSVSSYLAWYQQKPGQAPRLLIYDASNRATGIPARFSGSGSGTDFTLTIQSLEPEDFAVYYCQQRSNWPPWTFGQGTKVEIKR", "EXPERIMENTAL ENDPOINT": "ECL Signal/Noise", "RECORDED MEASUREMENT": 187}
{"BINDER": "Fab VH1-46_IGHD6-6*01_IGHJ1*01 S102A/S103P/S104F/H111F (H:APFF) & L6_IGKJ1*01 S76N (Fab, V domains shown, Tested as Fab expressed in E. coli; VH was cloned into Plasmid A (CH1 constant region, His6 and Flag tags) and the kappa VL into Plasmid C (kappa CL)) VH: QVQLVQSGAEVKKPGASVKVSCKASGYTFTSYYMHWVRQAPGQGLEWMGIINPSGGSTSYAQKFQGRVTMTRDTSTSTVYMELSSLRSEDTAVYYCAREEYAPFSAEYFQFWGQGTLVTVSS VL: EIVLTQSPATLSLSPGERATLSCRASQSVSSYLAWYQQKPGQAPRLLIYDASNRATGIPARFSGSGSGTDFTLTINSLEPEDFAVYYCQQRSNWPPWTFGQGTKVEIKR", "EXPERIMENTAL ENDPOINT": "ECL Signal/Noise", "RECORDED MEASUREMENT": 118}
{"BINDER": "Fab VH1-46_IGHD6-6*01_IGHJ1*01 S102A/S103P/S104F/H111F (H:APFF) & L6_IGKJ1*01 S76E (Fab, V domains shown, Tested as Fab expressed in E. coli; VH was cloned into Plasmid A (CH1 constant region, His6 and Flag tags) and the kappa VL into Plasmid C (kappa CL)) VH: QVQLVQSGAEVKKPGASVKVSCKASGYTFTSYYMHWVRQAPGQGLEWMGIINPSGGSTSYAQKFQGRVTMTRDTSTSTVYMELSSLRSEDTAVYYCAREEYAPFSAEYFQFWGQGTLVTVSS VL: EIVLTQSPATLSLSPGERATLSCRASQSVSSYLAWYQQKPGQAPRLLIYDASNRATGIPARFSGSGSGTDFTLTIESLEPEDFAVYYCQQRSNWPPWTFGQGTKVEIKR", "EXPERIMENTAL ENDPOINT": "ECL Signal/Noise", "RECORDED MEASUREMENT": 218}
{"BINDER": "Fab VH1-46_IGHD6-6*01_IGHJ1*01 S102A/S103P/S104F/H111F (H:APFF) & L6_IGKJ1*01 S76P (Fab, V domains shown, Tested as Fab expressed in E. coli; VH was cloned into Plasmid A (CH1 constant region, His6 and Flag tags) and the kappa VL into Plasmid C (kappa CL)) VH: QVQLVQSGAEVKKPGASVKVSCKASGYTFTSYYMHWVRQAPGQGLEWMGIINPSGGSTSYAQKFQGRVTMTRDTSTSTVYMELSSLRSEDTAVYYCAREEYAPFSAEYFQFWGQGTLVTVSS VL: EIVLTQSPATLSLSPGERATLSCRASQSVSSYLAWYQQKPGQAPRLLIYDASNRATGIPARFSGSGSGTDFTLTIPSLEPEDFAVYYCQQRSNWPPWTFGQGTKVEIKR", "EXPERIMENTAL ENDPOINT": "ECL Signal/Noise", "RECORDED MEASUREMENT": 100}
